These measurements were taken from the supplement of paper PMC10307832.

tested on: NCI-H2347; experiment: relative viability (nuclei count vs DMSO), 5 days (fraction); higher = more cells survive; conditions: first compound 0.1 µM
In this section we review reported relative viability values for a set of compounds.

- compound: "Cc1cn(-c2cc(NC(=O)c3ccc(C)c(Nc4nccc(-c5cccnc5)n4)c3)cc(C(F)(F)F)c2)cn1 [Nilotinib] + COc1cc2c(Oc3ccc(NC(=O)C4(C(=O)Nc5ccc(F)cc5)CC4)cc3F)ccnc2cc1OCCCN1CCOCC1 [Foretinib] (partner 0.25 µM)"
  relative viability: 0.501
- compound: "Cc1cn(-c2cc(NC(=O)c3ccc(C)c(Nc4nccc(-c5cccnc5)n4)c3)cc(C(F)(F)F)c2)cn1 [Nilotinib] + Cc1cc(Nc2cc(N3CCN(C)CC3)nc(Sc3ccc(NC(=O)C4CC4)cc3)n2)n[nH]1 [Tozasertib] (partner 0.1 µM)"
  relative viability: 0.3
- compound: "Cc1cn(-c2cc(NC(=O)c3ccc(C)c(Nc4nccc(-c5cccnc5)n4)c3)cc(C(F)(F)F)c2)cn1 [Nilotinib] + N=C(N)NC(=N)NCCc1ccccc1 [Phenformin] (partner 250 µM)"
  relative viability: 0.327
- compound: "Cc1cn(-c2cc(NC(=O)c3ccc(C)c(Nc4nccc(-c5cccnc5)n4)c3)cc(C(F)(F)F)c2)cn1 [Nilotinib] + CC(=O)c1c(C)c2cnc(Nc3ccc(N4CCNCC4)cn3)nc2n(C2CCCC2)c1=O [Palbociclib] (partner 0.5 µM)"
  relative viability: 0.396
